System: ADCK3
Construct: gene CABC1
Settings: concentration: 1 μM, replicates: in singlicate; n = 1;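 note: KINOMEscan kinase panel screen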
Field: %Inh. Provide a value for each of the compounds that follow.
Answers are plain numbers, in %.

Known %Inh results, listed for orientation:
| RECORD_SMILES | RESULT_UNIT | %Inh |
| --- | --- | --- |
| C[C@H]1CC[C@@H](C(=O)Nc2ccccc2)CN1c1cc(-c2ccc3c(N)n[nH]c3c2)nc(N)n1 | % | 11 |
| COc1ccc(NC(=O)c2ccc(-c3cc(-c4nnc(C)o4)ccc3C)cc2)cc1 | % | 0 |
| Cc1ccc(NC(=O)c2cccc(C#N)c2)cc1-c1ccc(C(=O)Nc2ccncc2)cc1 | % | 18 |

Please turn your attention to the following entry.
// fetch ADCK3 %Inh for `CS(=O)(=O)CCNCc1ccc(-c2ccc3ncnc(Nc4ccc(OCc5ccccc5)c(Cl)c4)c3c2)o1.Cl`
23

====

System: AMPK-alpha1
Construct: gene PRKAA1
Conditions: concentration: 1 μM, replicates: in singlicate; n = 1
I'd be grateful if you could share measured %Inh for these entries.
Answers are plain numbers, in %.

| RECORD_SMILES | %Inh / % |
| --- | --- |
| COc1cc2ncnc(Nc3ccc(OCc4ccccc4Br)c(Cl)c3)c2cc1OC.Cl | 11 |
| FC(F)(F)c1cc(Nc2nccc(-c3c(-c4ccc(Cl)cc4)nn4ncccc34)n2)ccc1Cl | 0 |
| Nc1nccc2scc(-c3ccc4c(c3)CCN4C(=O)Cc3cc(F)ccc3F)c12 | 0 |

Provide each entry's %Inh from the list below.
1. CCc1nc(-c2cccc(N(C)S(=O)(=O)c3ccccc3)c2)c(-c2ccnc(Nc3ccc(N4CCN(C(C)=O)CC4)nc3)n2)s1
2. COc1cc2c(Nc3cccc(NC(=O)c4ccccc4)c3)ncnc2cc1OCCCN1CCOCC1
3. Fc1cccc(COc2ccc(Nc3ncnc4cc[nH]c34)cc2Cl)c1
4. Cc1ccc(O)cc1Nc1cc(C(F)(F)F)nc2ccc(-c3ccncc3)cc12

[0, 18, 4, 0]

Quick one: %Inh for `Cc1cc(N2CCC(NS(=O)(=O)c3ccc(F)cc3)CC2)nc(Nc2cccc(C#N)c2)n1.O=C(O)C(F)(F)F` ?
0

====

Tested on: EPHA8
Details: concentration: 1 μM, replicates: in singlicate; n = 1
Give %Inh for every item shown.
One number for each entry, in %.

Use the examples below as a reference point.
| COMPOUND | RESULT_UNIT | ASSAY_VALUE |
| --- | --- | --- |
| Nc1nc(-c2ccc3c(N)n[nH]c3c2)cc(N2CCCCC2)n1 | % | 0 |
| C[C@@H]1CCN(C(=O)CO)C[C@@H]1N(C)c1ncnc2[nH]ccc12 | % | 0 |
| Nc1nc(-c2ccccn2)c(-c2ccnc3ccccc23)s1 | % | 20 |
| N#Cc1ccc(Oc2ccc(Nc3ncnc4cc[nH]c34)cc2Cl)cc1 | % | 1 |
| COC(=O)c1cccc(NC(=O)NCCNc2ccnc(Nc3ccc(F)cc3)n2)c1 | % | 9 |
| Cc1cc(N2CCC(NS(=O)(=O)c3ccc(F)cc3)CC2)nc(Nc2cccc(C#N)c2)n1.O=C(O)C(F)(F)F | % | 19 |
| FC(F)(F)c1cc(Nc2nccc(-c3c(-c4ccc(Cl)cc4)nn4ncccc34)n2)ccc1Cl | % | 3 |
| Fc1ccc(-c2ncn(CCCNCc3ccccc3)c2-c2ccncc2)cc1 | % | 19 |

For every listed record, write down its %Inh.
1. CC(C)(C)OC(=O)NC1CCCN(c2cc(-c3ccc4c(N)n[nH]c4c3)nc(N)n2)C1 (stereo not shown)
2. CN1c2ccc(-c3ccc(C(=O)NCCO)cc3)cc2-c2[nH]ncc2S1(=O)=O
3. COc1ccc(Nc2nccc(N3CCC(NC(=O)Nc4ccc5c(c4)OCO5)C3)n2)cc1 (stereo not shown)
4. O=C(Nc1ccccc1)Nc1ccc(Oc2ccc3nccn3n2)cc1
5. Cl.Cn1ccc(-c2cccc(Nc3ccnc4cc(-c5nccs5)ccc34)c2)n1
6. Nc1nc(-c2cccnc2)c(-c2ccnc3ccccc23)s1
7. Cl.O=S(=O)(c1cccc(F)c1)c1ccc(Nc2ncnc3cc(Br)sc23)cc1Cl

1. 6
2. 0
3. 20
4. 23
5. 7
6. 9
7. 2

====

Test system: MEK3
Construct: gene MAP2K3
Conditions: concentration: 1 μM, replicates: in singlicate; n = 1
Please go through the items and note down their %Inh.
Give bare numbers, in %.

Below, 2 compounds whose answers are already recorded.
| COMPOUND | TARGET_SYSTEM | %Inh [%] |
| --- | --- | --- |
| Oc1ccc2ncnc(Nc3ccc(OCc4ccccc4)cc3)c2c1 | MEK3 | 0 |
| Cc1ccc(C)c(NC(=O)NCCNc2ccnc(Nc3ccc(F)cc3)n2)c1 | MEK3 | 11 |

Give %Inh for each listed item.
1. Cl.Fc1ccccc1COc1ccc(Nc2ncnc3ccc(-c4nnc(C(F)(F)F)o4)cc23)cc1Cl
2. O=C(CCO)NCCn1ccc2ncnc(Nc3ccc(Oc4cccc(C(F)(F)F)c4)c(Cl)c3)c21
3. C[C@H]1CC[C@@H](C(=O)Nc2ccccc2)CN1c1cc(-c2ccc3c(N)n[nH]c3c2)nc(N)n1

[0, 0, 0]

Provide reported %Inh for each item, in the same order as listed.
1. Cl.O=S(=O)(c1cccc(F)c1)c1ccc(Nc2ncnc3cc(Br)sc23)cc1Cl
2. O=C(NCCCN1CCCC1=O)c1cnc(NCc2cc(Cl)ccc2Cl)nc1NC1CCNCC1
3. FC(F)(F)c1ccc(-c2nn3ncccc3c2-c2ccnc(Nc3cccc(C(F)(F)F)c3)n2)cc1

0
0
0

For every record below, what is its %Inh?
1. COc1ccc(NC(=O)c2ccc(-c3cc(-c4nnc(C)o4)ccc3C)cc2)cc1
2. Nc1nc(-c2ccc3c(N)n[nH]c3c2)cc(N2CCC[C@@H](C(=O)Nc3ccccc3)C2)n1.O=C(O)C(F)(F)F.O=C(O)C(F)(F)F
3. Cl.Cl.c1ccc(-c2cc3ccncc3cc2OC2CCNCC2)cc1
4. Clc1ccc(-c2cc(-c3c[nH]nc3-c3ccccn3)ccn2)cc1
5. Clc1cc(Nc2ncnc3cc[nH]c23)ccc1OCc1ccccn1
6. COc1cc2c(Nc3cccc(NC(=O)c4ccccc4)c3)ncnc2cc1OCCCN1CCOCC1
7. Nc1n[nH]c2nnc(-c3ccccc3)cc12

1. 0
2. 3
3. 0
4. 0
5. 19
6. 7
7. 0

Dear colleague, could you please provide %Inh for the compounds listed below?
1. O=C(Nc1ccccc1)Nc1ccc(Oc2ccc3nccn3n2)cc1
2. CSc1nn2c(=O)cc(N3CCOCC3)nc2n1Cc1cccc(Cl)c1Cl

0
0

====

Tested on: EPHA5
Conditions: concentration: 1 μM, replicates: in singlicate; n = 1
What %Inh was measured for each of the following?
Answers are plain numbers, in %.

Known %Inh results, listed for orientation:
| MOLECULE | %Inh / % |
| --- | --- |
| COc1cc2c(Nc3cccc(NC(=O)c4ccccc4)c3)ncnc2cc1OCCCN1CCOCC1 [GSK223810] | 0 |
| CCc1nc(-c2cccc(N(C)S(=O)(=O)c3ccccc3)c2)c(-c2ccnc(Nc3ccc(N4CCN(C(C)=O)CC4)nc3)n2)s1 [GSK1645895] | 0 |
| CNc1nccc(-c2c(-c3ccc(F)cc3)ncn2C2CCN(C)CC2)n1 [SB-222903] | 0 |
| COc1ccc(Nc2nccc(N3CCC(NC(=O)c4cccc(NC(C)=O)c4)C3)n2)cc1 (stereo not drawn) [GSK1379732] | 0 |

Provide %Inh values for the following items, in order.
1. CCCc1ccc(S(=O)(=O)NC2CCN(c3ccnc(Nc4ccc(OC)cc4)n3)C2)cc1 (stereo not drawn) [GSK1379737]
2. FC(F)(F)c1ccc(-c2cc(-c3c[nH]nc3-c3ccccn3)ccn2)cc1 [GW599550]
3. Fc1cccc(COc2ccc(Nc3ncnc4cc[nH]c34)cc2Cl)c1
4. COC(=O)c1cccc(NC(=O)NCCNc2ccnc(Nc3ccc(F)cc3)n2)c1 [GSK1379883]
5. Cl.Cn1ccc(-c2cccc(Nc3ccnc4cc(-c5nccs5)ccc34)c2)n1 [GW525701]

[0, 0, 20, 0, 0]

// for each molecule below, give its %Inh
1. Fc1ccc(-c2ncn(CCCNCc3ccccc3)c2-c2ccncc2)cc1
2. Fc1ccc(Nc2nccc(-c3c(-c4ccc(Cl)cc4)nn4ncccc34)n2)cc1F [GW829058]
3. OCCOCCn1ccc2ncnc(Nc3ccc(Oc4cccc(Cl)c4)c(Cl)c3)c21

7
24
0

====

So I've got a bunch of compounds here, and I need their %Inh values.
System: LIMK1
Conditions: concentration: 1 μM, replicates: in singlicate; n = 1
One number for each entry, in %.

The following compounds have reported results that may help.
| COMPOUND | TARGET_SYSTEM | %Inh, % |
| --- | --- | --- |
| O=C(c1ccc(-c2cc(-c3c[nH]nc3-c3ccccn3)ccn2)cc1)N1CCCC1 [GW792479] | LIMK1 | 0 |
| Clc1cc(Nc2ncnc3cc[nH]c23)ccc1OCc1ccccn1 | LIMK1 | 0 |
| FC(F)(F)c1ccc(-c2cc(-c3c[nH]nc3-c3ccccn3)ccn2)cc1 [GW599550] | LIMK1 | 7 |
| Cc1ccc(O)cc1Nc1cc(C(F)(F)F)nc2ccc(-c3ccncc3)cc12 [GW630823] | LIMK1 | 21 |
| Cn1ccc2ncnc(Oc3ccc(NC(=O)Nc4cccnc4)c(Cl)c3)c21 | LIMK1 | 0 |

Batch lookup, %Inh per entry.
1. Cl.O=S(=O)(c1cccc(F)c1)c1ccc(Nc2ncnc3cc(Br)sc23)cc1Cl [GSK306886]
2. CSc1nn2c(=O)cc(N3CCOCC3)nc2n1Cc1cccc(Cl)c1Cl [GSK2347225]
3. COc1ccc(-c2nc3n(c2-c2ccncc2)CCC3)cc1 [SKF-104493]
4. CCCc1ccc(S(=O)(=O)NC2CCN(c3ccnc(Nc4ccc(OC)cc4)n3)C2)cc1 (stereo not drawn) [GSK1379737]
5. COc1ccc(NC(=O)c2ccc(-c3cc(-c4nnc(C)o4)ccc3C)cc2)cc1 [GW595885]
6. C[C@H]1CC[C@@H](C(=O)Nc2ccccc2)CN1c1cc(-c2ccc3c(N)n[nH]c3c2)nc(N)n1 [GSK2283293]
7. CC(C)(C)OC(=O)NC1CCCN(c2cc(-c3ccc4c(N)n[nH]c4c3)nc(N)n2)C1 (stereo not drawn) [GSK2286096]

33
11
0
0
3
0
6

I would be grateful if you could provide %Inh for each of the following entries.
1. Oc1ccc2ncnc(Nc3ccc(OCc4ccccc4)cc3)c2c1 [GI262866]
2. CN1CCC(n2cnc(-c3ccc(F)cc3)c2-c2ccnc(NC3CCNCC3)n2)CC1 [SB-229482]

1: 0; 2: 0

Sample CNc1nccc(-c2c(-c3ccc(F)cc3)ncn2CCCN2CCOCC2)n1 [SB-222516] — what was its %Inh?
11
